Test: Cytotoxicity against human HL-7702 cells after 48 hrs by MTT assay
Format: cell-based, L02
Conditions: Homo sapiens, L02, 48 h
Let's look at some compounds and their measured IC50.

smiles_str | IC50 (µM)
COc1cc([C@@H]2c3cc4c(cc3[C@@H](OC(=O)c3ccc5ccccc5n3)[C@H]3COC(=O)[C@H]23)OCO4)cc(OC)c1O | 20.1
COc1cc([C@@H]2c3cc4c(cc3[C@@H](NC(=O)c3cc(O)c(O)c(O)c3)[C@H]3COC(=O)[C@H]23)OCO4)cc(OC)c1O | 14.8
COc1cc([C@@H]2c3cc4c(cc3[C@@H](NC(=O)Cn3cnc5c3c(=O)n(C)c(=O)n5C)[C@H]3COC(=O)[C@H]23)OCO4)cc(OC)c1O | 50.8
COc1cc([C@@H]2c3cc4c(cc3[C@@H](OC(=O)c3cnc(C)cn3)[C@H]3COC(=O)[C@H]23)OCO4)cc(OC)c1O | 18.6
COc1cc([C@@H]2c3cc4c(cc3[C@@H](NC(=O)c3cnccn3)[C@H]3COC(=O)[C@H]23)OCO4)cc(OC)c1O | 53.6

###

Test system: HeLa
Experiment: Cytotoxicity against human HeLa cells after 48 hrs by MTT assay
Format: functional, cell-based
pIC50: −log10 of the molar value.
Class Condition met: pIC50 at least 6. Class Condition not met: pIC50 below 6.

compound | answer_label
COc1cc([C@@H]2c3cc4c(cc3[C@@H](O[C@@H]3O[C@@H]5CO[C@@H](C)O[C@H]5[C@H](O)[C@H]3O)[C@H]3COC(=O)[C@H]23)OCO4)cc(OC)c1O [ETOPOSIDE] | Condition not met
COc1cc([C@@H]2c3cc4c(cc3[C@@H](OC(=O)c3cnccn3)[C@H]3COC(=O)[C@H]23)OCO4)cc(OC)c1O | Condition met
COc1cc([C@@H]2c3cc4c(cc3[C@@H](OC(=O)c3cnc(C)cn3)[C@H]3COC(=O)[C@H]23)OCO4)cc(OC)c1O | Condition not met
COc1cc([C@@H]2c3cc4c(cc3[C@@H](NC(=O)Cn3cnc5c3c(=O)n(C)c(=O)n5C)[C@H]3COC(=O)[C@H]23)OCO4)cc(OC)c1O | Condition not met
COc1cc([C@@H]2c3cc4c(cc3[C@@H](O)[C@H]3COC(=O)[C@H]23)OCO4)cc(OC)c1O [4'-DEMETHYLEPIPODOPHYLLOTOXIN] | Condition not met
COc1cc([C@@H]2c3cc4c(cc3[C@@H](NC(=O)c3cnc(C)cn3)[C@H]3COC(=O)[C@H]23)OCO4)cc(OC)c1O | Condition not met
COc1cc([C@@H]2c3cc4c(cc3[C@@H](OC(=O)c3ccc5ccccc5n3)[C@H]3COC(=O)[C@H]23)OCO4)cc(OC)c1O | Condition not met
COc1cc([C@@H]2c3cc4c(cc3[C@@H](NC(=O)c3cc(O)c(O)c(O)c3)[C@H]3COC(=O)[C@H]23)OCO4)cc(OC)c1O | Condition not met
COc1cc([C@@H]2c3cc4c(cc3[C@@H](OC(=O)Cn3cnc5c3c(=O)n(C)c(=O)n5C)[C@H]3COC(=O)[C@H]23)OCO4)cc(OC)c1O | Condition met
COc1cc([C@@H]2c3cc4c(cc3[C@@H](NC(=O)c3cnccn3)[C@H]3COC(=O)[C@H]23)OCO4)cc(OC)c1O | Condition not met
COc1cc([C@@H]2c3cc4c(cc3[C@@H](OC(=O)c3cn(C5CC5)c5cc(Cl)c(F)cc5c3=O)[C@H]3COC(=O)[C@H]23)OCO4)cc(OC)c1O | Condition met

###

This section presents molecules with their documented logP values.
Assay: Octanol-water partition coefficient, log P of the compound
Format: physicochemical
endpoint_label: logP

molecule | reading
COc1cc([C@@H]2c3cc4c(cc3[C@@H](NC(=O)c3cc(O)c(O)c(O)c3)[C@H]3COC(=O)[C@H]23)OCO4)cc(OC)c1O | 0.29
COc1cc([C@@H]2c3cc4c(cc3[C@@H](OC(=O)c3cn(C5CC5)c5cc(Cl)c(F)cc5c3=O)[C@H]3COC(=O)[C@H]23)OCO4)cc(OC)c1O | 0.69
COc1cc([C@@H]2c3cc4c(cc3[C@@H](O[C@@H]3O[C@@H]5CO[C@@H](C)O[C@H]5[C@H](O)[C@H]3O)[C@H]3COC(=O)[C@H]23)OCO4)cc(OC)c1O [ETOPOSIDE] | 0.52
COc1cc([C@@H]2c3cc4c(cc3[C@@H](OC(=O)c3cnc(C)cn3)[C@H]3COC(=O)[C@H]23)OCO4)cc(OC)c1O | 0.38
COc1cc([C@@H]2c3cc4c(cc3[C@@H](OC(=O)c3cnccn3)[C@H]3COC(=O)[C@H]23)OCO4)cc(OC)c1O | 0.33
COc1cc([C@@H]2c3cc4c(cc3[C@@H](NC(=O)Cn3cnc5c3c(=O)n(C)c(=O)n5C)[C@H]3COC(=O)[C@H]23)OCO4)cc(OC)c1O | 0.56
COc1cc([C@@H]2c3cc4c(cc3[C@@H](NC(=O)c3cnc(C)cn3)[C@H]3COC(=O)[C@H]23)OCO4)cc(OC)c1O | 0.59
COc1cc([C@@H]2c3cc4c(cc3[C@@H](NC(=O)c3cnccn3)[C@H]3COC(=O)[C@H]23)OCO4)cc(OC)c1O | 0.43

###

This section presents compounds with their documented logP values.
Experiment: Octanol-water partition coefficient, log P of the compound
Format: physicochemical
endpoint_label: logP

compound | endpoint_label | reading
COc1cc([C@@H]2c3cc4c(cc3[C@@H](OC(=O)c3ccc5ccccc5n3)[C@H]3COC(=O)[C@H]23)OCO4)cc(OC)c1O | logP | 0.8
COc1cc([C@@H]2c3cc4c(cc3[C@@H](O)[C@H]3COC(=O)[C@H]23)OCO4)cc(OC)c1O [4'-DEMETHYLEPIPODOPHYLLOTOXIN] | logP | 0.73
COc1cc([C@@H]2c3cc4c(cc3[C@@H](OC(=O)Cn3cnc5c3c(=O)n(C)c(=O)n5C)[C@H]3COC(=O)[C@H]23)OCO4)cc(OC)c1O | logP | 0.43

###

The entries below are paired with their reported IC50.
Test: Cytotoxicity against human HL-7702 cells after 48 hrs by MTT assay
Type: cell-based, L02
Conditions: Homo sapiens, L02, 48 h
endpoint_label: IC50 (µM)

molecule | endpoint_label | reading
COc1cc([C@@H]2c3cc4c(cc3[C@@H](OC(=O)c3cnccn3)[C@H]3COC(=O)[C@H]23)OCO4)cc(OC)c1O | IC50 | 52.4
COc1cc([C@@H]2c3cc4c(cc3[C@@H](OC(=O)c3cn(C5CC5)c5cc(Cl)c(F)cc5c3=O)[C@H]3COC(=O)[C@H]23)OCO4)cc(OC)c1O | IC50 | 41.8
COc1cc([C@@H]2c3cc4c(cc3[C@@H](O[C@@H]3O[C@@H]5CO[C@@H](C)O[C@H]5[C@H](O)[C@H]3O)[C@H]3COC(=O)[C@H]23)OCO4)cc(OC)c1O [ETOPOSIDE] | IC50 | 24.6

###

Catalogue of compounds with associated pIC50
Assay: Cytotoxicity against human HL-7702 cells after 48 hrs by MTT assay
Assay type: cell-based, L02
Details: Homo sapiens, L02, 48 h
pIC50: −log10 of the molar value.
endpoint_label: pIC50

compound | endpoint_label | reading
COc1cc([C@@H]2c3cc4c(cc3[C@@H](NC(=O)c3cnc(C)cn3)[C@H]3COC(=O)[C@H]23)OCO4)cc(OC)c1O | pIC50 | 4.68
COc1cc([C@@H]2c3cc4c(cc3[C@@H](OC(=O)Cn3cnc5c3c(=O)n(C)c(=O)n5C)[C@H]3COC(=O)[C@H]23)OCO4)cc(OC)c1O | pIC50 | 4.42
COc1cc([C@@H]2c3cc4c(cc3[C@@H](O)[C@H]3COC(=O)[C@H]23)OCO4)cc(OC)c1O [4'-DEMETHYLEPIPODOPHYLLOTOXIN] | pIC50 | 4.88

###

Test: Cytotoxicity against human BGC823 cells
Assay type: functional, cell-based
Details: BGC-823

compound | IC50 (µM)
COc1cc([C@@H]2c3cc4c(cc3[C@@H](Sc3nc[nH]n3)[C@H]3COC(=O)[C@H]23)OCO4)cc(OC)c1O | 0.28
COc1cc([C@@H]2c3cc4c(cc3[C@@H](O[C@@H]3O[C@@H]5CO[C@@H](C)O[C@H]5[C@H](O)[C@H]3O)[C@H]3COC(=O)[C@H]23)OCO4)cc(OC)c1O [ETOPOSIDE] | 25.7
